assay system: T1, human CEA protein on the cell surface (human, UniProt P06731 35-685)
T1 construct: whole, on cells; also called CEACAM-5; CD66e
T1 sequence (looked up): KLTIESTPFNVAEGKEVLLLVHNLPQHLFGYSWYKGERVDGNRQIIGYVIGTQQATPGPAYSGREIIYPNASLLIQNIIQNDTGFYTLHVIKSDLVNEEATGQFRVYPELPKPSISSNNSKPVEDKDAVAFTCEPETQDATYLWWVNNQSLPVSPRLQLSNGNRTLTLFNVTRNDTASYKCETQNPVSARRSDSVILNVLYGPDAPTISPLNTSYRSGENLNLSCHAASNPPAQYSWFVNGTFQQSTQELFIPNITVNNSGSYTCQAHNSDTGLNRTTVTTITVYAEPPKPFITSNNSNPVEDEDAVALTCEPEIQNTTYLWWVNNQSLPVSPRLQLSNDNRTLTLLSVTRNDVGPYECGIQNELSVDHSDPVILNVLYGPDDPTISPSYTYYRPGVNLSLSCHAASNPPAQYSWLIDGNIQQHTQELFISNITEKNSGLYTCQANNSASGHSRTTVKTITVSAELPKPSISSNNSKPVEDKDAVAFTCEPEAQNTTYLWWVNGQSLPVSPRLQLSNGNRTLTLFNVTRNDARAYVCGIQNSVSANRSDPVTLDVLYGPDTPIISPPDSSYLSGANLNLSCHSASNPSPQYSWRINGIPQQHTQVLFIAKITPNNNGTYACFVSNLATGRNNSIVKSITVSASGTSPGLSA
assay text: FACS, MKN45 cells
pEC50: −log10 of the molar value.

binder	pEC50
Hu103-2 (antibody, human IgG1, lambda, V domains shown) VH: EVQLVQSGSELKKPGASVKVSCKASGYTFTTYGVIWVRQAPGQGLEWMGWINTYSGVPTYADDFKGRFVFSLDTSVSTAYLQISSLKAEDTAVYYCARKKTLTTVTPWFAYWGQGTLVTVSS VL: ELVLTQSPSASASLGASVKLTCTLSSQHSTYTIEWYQQQPEKGPRYLMELKKDGSHSTGDGIPDRFSGSSSGAERYLTISSLQSEDEADYYCGVGNTIKEQFVYVFGGGTKLTVLG	8.66
Hu103-1 (antibody, human IgG1, lambda, V domains shown) VH: EVQLVQSGSELKKPGASVKVSCKASGYTFTTYGVIWVRQAPGQGLEWMGWINTYSGVPTYADDFKGRFVFSLDTSVSTAYLQISSLKAEDTAVYYCARKKTLTTVTPWFAYWGQGTLVTVSS VL: ELVLTQSPSASASLGASVKLTCTLSSQHSTYTIEWHQQQPEKGPRYLMELKKDGSHSTGDGIPDRFSGSSSGAERYLTISSLQSEDEADYYCGVGNTIKEQFVYVFGGGTKLTVLG	8.63
Hu63-5 (antibody, human IgG1, kappa, V domains shown) VH: EVQLVQSGAEVKKPGASVKVSCKASGYTFTDFYMNWVRQAPGQGLEWMGDIFPKNGNTDYNRKFKDRVTLTVDKSTSTVYMELSSLRSEDTAVYYCARSGYGNYVFDYWGQGTLVTVSS VL: DVQMTQSPSSLSASVGDRVTITCRTSQDINIYLNWYQQKPGKAPKLLIYYRSGLLSGVPSRFSGSGSGTDYTLTISSLQPEDFATYYCQQGNTLPPTFGGGTKVEIKR	8.43

These entries and their values trace back to patent US20230055408A1.
